Tested on: ECU
method_notes: qHTS profiling for inhibitors of Plasmodium falciparum proliferation (AID 504749); further: nearly all actives have a fitted effect of over 60% in size; further: potency means the concentration at half of the fitted maximal effect
recorded_conditions: P. falciparum in erythrocytes, SYBR Green DNA, 72 h; series mostly up to 28.7 µM
Results filed as inconclusive are left out. Calls of active or inactive are those of the source. The call rests on the fitted dose curve; in most records, active means well fitted inhibition curve with a large enough effect; inconclusive means small, poorly fitted or top-dose-only effect; inactive means flat fitted curve, though single readings scatter.
assay_endpoint: Potency

- O=C1NC(=O)[C@@]2(CCOc3ccc(F)cc32)N1: inactive
- OCCN1CCN(CCCN2c3ccccc3Sc3ccc(Cl)cc32)CC1: 3.16 µM (active)
- CCCCc1ncc(/C=C(\Cc2cccs2)C(=O)O)n1Cc1ccc(C(=O)O)cc1: inactive
- O=C(O)c1ccccn1: inactive
- CCCCCCCCCCCCOS(=O)(=O)O: inactive

====

System: 7G8
method_notes: qHTS profiling for inhibitors of Plasmodium falciparum proliferation (AID 504749); further: nearly all actives have a fitted effect of over 60% in size
recorded_conditions: P. falciparum in erythrocytes, SYBR Green DNA, 72 h; series mostly up to 28.7 µM
Results filed as inconclusive are left out. Calls of active or inactive are those of the source. Calls come from the whole dose curve; as a rule, active = well fitted inhibition curve with a large enough effect; inconclusive = small, poorly fitted or top-dose-only effect; inactive = flat fitted curve, though single readings scatter.
Labels: TRUE (active), FALSE (inactive)

* CCCCCCCCCCCCOS(=O)(=O)O | FALSE
* CCCc1c(OCCCCc2nn[nH]n2)ccc(C(C)=O)c1O | TRUE
* Cc1cc(O)cc2c1O[C@](C)(CCC[C@H](C)CCC[C@H](C)CCCC(C)C)CC2 | FALSE
* CCN(CC)CCNC(=O)c1c(C)[nH]c(/C=C2\C(=O)Nc3ccc(F)cc32)c1C | TRUE

====

Tested on: TAB113
method_notes: qHTS profiling for inhibitors of Plasmodium falciparum proliferation (AID 504749); further: nearly all actives have a fitted effect of over 60% in size; further: potency means the concentration at half of the fitted maximal effect
recorded_conditions: P. falciparum in erythrocytes, SYBR Green DNA, 72 h; series mostly up to 28.7 µM
Inconclusive results are not listed. Active and inactive are the calls of the source. The call rests on the fitted dose curve; in most records, active means well fitted inhibition curve with a large enough effect; inconclusive means small, poorly fitted or top-dose-only effect; inactive means flat fitted curve, though single readings scatter.
assay_endpoint: Potency

* COc1ccc2[nH]c(S(=O)Cc3ncc(C)c(OC)c3C)nc2n1 (configuration not stated) | 8.91 µM (active)
* Nc1ccc(S(=O)(=O)Nc2ccccc2)cc1 | inactive
* CNCCCC1c2ccccc2C=Cc2ccccc21 | inactive
* Cc1cc2c(cc1S(N)(=O)=O)S(=O)(=O)CCC2 | inactive
* CC(=O)CCC(=O)O | inactive
* Cn1c(=O)c2c(ncn2CC2OCCO2)n(C)c1=O | inactive
* CSc1ccc2c(c1)N(CCC1CCCCN1C)c1ccccc1S2 (configuration not stated) | 10 µM (active)
* O=c1cc(CO)occ1O | inactive
* C[C@H]1O[C@@H](n2cc(F)c(=O)[nH]c2=O)[C@H](O)[C@@H]1O | inactive
* CC1(C)OC(=O)NC1=O | inactive
* CN(C)CCN(Cc1ccccc1)c1ccccn1 | inactive
* Oc1cccc(O)c1 | inactive
* Cc1cc(N)c2ccccc2[n+]1CCCCCCCCCC[n+]1c(C)cc(N)c2ccccc21 | 0.126 µM (active)
* NC(CSCC(=O)O)C(=O)O (configuration not stated) | inactive
* C[C@H](N)[C@H](O)c1cccc(O)c1 | inactive
* Nc1nc2c(ncn2CCC(CO)CO)c(=O)[nH]1 | inactive
* O=C(O)CC(O)C(=O)O (configuration not stated) | inactive
* CCCCN(CCCC)CC(O)c1cc(Cl)cc2c1-c1ccc(Cl)cc1/C2=C/c1ccc(Cl)cc1 (configuration not stated) | 0.0056 µM (active)
* CC(=O)NC(Cc1ccccc1)C(=O)O (configuration not stated) | inactive
* COc1cc2[nH]c(=O)[nH]c(=O)c2cc1OC | inactive
* C#CCN(C)Cc1ccccc1 | inactive
* CCC(=O)c1ccc(O)cc1 | inactive
* CC1=C(CC(=O)O)c2cc(F)ccc2/C1=C\c1ccc(S(C)=O)cc1 (configuration not stated) | inactive
* CC1=C(/C=C/C(C)=C/C=C/C(C)=C/C(=O)O)C(C)(C)CCC1 | inactive
* CC(O)CN(CCN(CC(C)O)CC(C)O)CC(C)O (configuration not stated) | inactive
* CCCCOC(=O)c1ccc(O)cc1 | inactive
* CCN(CC)CCNC(=O)c1c(C)[nH]c(/C=C2\C(=O)Nc3ccc(F)cc32)c1C | 10 µM (active)
